- tgt: cysteines in MDA-MB-231 and Ramos cells (Homo sapiens)
- Sequence (Q9NQR4 whole entry, the tested form may be a part): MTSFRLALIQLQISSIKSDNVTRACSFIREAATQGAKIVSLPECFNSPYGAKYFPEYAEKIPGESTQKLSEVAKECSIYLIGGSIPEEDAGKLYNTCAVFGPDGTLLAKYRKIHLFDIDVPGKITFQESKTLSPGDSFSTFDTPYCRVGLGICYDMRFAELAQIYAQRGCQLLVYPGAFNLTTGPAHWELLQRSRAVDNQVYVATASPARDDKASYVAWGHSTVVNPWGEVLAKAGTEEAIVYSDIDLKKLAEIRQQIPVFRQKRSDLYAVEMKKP
- assay: Competitive isoTOP-ABPP in situ (fragment-treated cells)
- Format: cell-based
- test.parameters: 200 μM, insitu, 231
# Lookup of reported isoTOP-ABPP ratio Q9NQR4_C153 keyed by entry
Field format: numeric only.

Worked set:
compound	isoTOP-ABPP ratio Q9NQR4_C153
O=C(CCl)NCCc1c[nH]c2ccccc12	6.2
CC1CCc2ccccc2N1C(=O)CCl (centres unmarked)	2.0
CC(C)CCOCCNC(=O)CCl	1.3
C=CC(=O)Nc1cc(F)c(N2CCN(C(=O)OC(C)(C)C)CC2)c(F)c1	1.1

Kindly review the next compound as well.
Provide isoTOP-ABPP ratio Q9NQR4_C153, tested on cysteines in MDA-MB-231 and Ramos cells (Homo sapiens), for C=CC(=O)N(Cc1cccnc1)c1cc(C(F)(F)F)cc(C(F)(F)F)c1 . 0.6
